endpoint.label: glass transition temperature (°C)

molecule	unit.label	glass transition temperature
*Oc1ccc(S(=O)(=O)c2ccc(Oc3c(C)cc(C(C)(C)c4cc(C)c(*)c(C)c4Br)c(Br)c3C)cc2)cc1 (repeat unit)	°C	275.40
*c1ccc(Oc2ccc(N3C(=O)c4ccc(-c5ccc6c(c5)C(=O)N(*)C6=O)cc4C3=O)cc2)cc1 (repeat unit)	°C	279.00
*C(=O)Nc1ccc(C2(c3ccc(NC(=O)c4ccc5c(c4)C(=O)N(c4ccc(Oc6ccc(N7C(=O)c8ccc(*)cc8C7=O)cc6)cc4)C5=O)cc3)c3ccccc3-c3ccccc32)cc1 (repeat unit)	°C	240.00

----------
endpoint.label: glass transition temperature (°C)

Some solved entries appear below for comparison.
molecule	glass transition temperature (°C)
*OC1CCCCC1* (repeat unit)	68.50
*CC(*)(C)C(=O)OCCOCCOCCOCCOc1ccc(/N=N/c2ccc(C#N)cc2)cc1 (repeat unit)	20.00

1: *CCCCCCCCOC(=O)c1ccc2cc(C(=O)O*)ccc2c1 (repeat unit)
2: *c1ccc(Oc2cccc(Oc3ccc(N4C(=O)c5cccc(Oc6ccc(C(=O)c7ccc(Oc8cccc9c8C(=O)N(*)C9=O)cc7)cc6)c5C4=O)cc3)c2)cc1 (repeat unit)
Identify the entry with the larger glass transition temperature. Options: 1 and 2 Returns: label corresponding to the selected item. 2
(2: 216.00 °C, 1: 60.00 °C)

----------
endpoint.label: glass transition temperature (°C)

molecule	value.reported
*c1cccc(S(=O)(=O)c2cccc(N3C(=O)c4ccc(Oc5ccc(Sc6ccc(Oc7ccc8c(c7)C(=O)N(*)C8=O)cc6)cc5)cc4C3=O)c2)c1 (repeat unit)	231.00
*OP(=O)(Oc1ccccc1)Oc1c(C)cc(S(=O)(=O)c2cc(C)c(*)c(C)c2)cc1C (repeat unit)	142.00
*c1ccc(OCCOc2ccc(/C=C/c3ccc([N+](=O)[O-])cc3)c(OCCOc3ccc(-c4nc5ccc(Oc6ccc7nc(*)c(-c8ccccc8)nc7c6)cc5nc4-c4ccccc4)cc3)c2)cc1 (repeat unit)	187.00
*c1cccc(OCCCCOc2cccc(N3C(=O)c4ccc(-c5ccc6c(c5)C(=O)N(*)C6=O)cc4C3=O)c2)c1 (repeat unit)	175.00
*CCCC(C)(C)CNC(=O)C(=O)N* (repeat unit)	109.00
*c1ccc(Oc2ccc(Oc3ccc(P(=O)(c4ccccc4)c4ccc(Oc5ccc(Oc6ccc(-c7nc8ccccc8nc7*)cc6)cc5)cc4)cc3)cc2)cc1 (repeat unit)	209.00

----------
endpoint.label: glass transition temperature (°C)

compound	glass transition temperature, °C
*Oc1ccc(-c2ccc(Oc3ccc(Oc4cc(Oc5ccc(*)cc5)ccc4CCCCCC)cc3)c3ccccc23)c2ccccc12 (repeat unit)	150.00

a: *Oc1ccc(NC(=O)c2ccc(NC(=O)c3ccc([Si](C)(C)c4ccc(C(=O)Nc5ccc(C(=O)Nc6ccc(*)cc6)cc5)cc4)cc3)cc2)cc1 (repeat unit)
b: *Oc1ccc(C(C)(c2ccccc2)c2ccc(Oc3c(F)c(F)c(C(=O)c4c(F)c(F)c(*)c(F)c4F)c(F)c3F)cc2)cc1 (repeat unit)
c: */C=C/c1cc(OCC(CC)CCCC)c(/C=C/c2cc(OC)c(*)cc2OC)cc1OC (repeat unit)
Please put the entries in order of rising glass transition temperature. Put the labels in the requested order and list them out. c, b, a

----------
endpoint.label: glass transition temperature (°C)

Sample records with glass transition temperature:
compound	glass transition temperature [°C]
*c1ccc2c(c1)C(=O)N(c1cc(C)c(-c3c(C)cc(N4C(=O)c5ccc(C(*)(C(F)(F)F)C(F)(F)F)cc5C4=O)cc3C)c(C)c1)C2=O (repeat unit)	346.00
*CC(*)OCCOc1ccc(C=C(C#N)C#N)cc1 (repeat unit)	38.00

A: *CC(CCCCCCOc1ccc(/N=N/c2ccc(C(F)(F)F)cc2)cc1)COC(=O)CCCCC(=O)O* (repeat unit)
B: *Oc1ccc(C(CC)(c2ccccc2)c2ccc(OC(=O)c3ccc(C(*)=O)cc3)cc2)cc1 (repeat unit)
// which entry reports the smaller glass transition temperature, A or B ? Select an item and report its label. A
(A: 44.00 °C, B: 243.00 °C)

All figures here come from the PolyMetriX glass transition set.
